Biological target: transcortin (CBG) (Homo sapiens, UniProt P08185)
Construct: from tissue; host or cells: plasma from venous blood of healthy volunteers, charcoal-treated, diluted 100-fold
Sequence (P08185 23-405): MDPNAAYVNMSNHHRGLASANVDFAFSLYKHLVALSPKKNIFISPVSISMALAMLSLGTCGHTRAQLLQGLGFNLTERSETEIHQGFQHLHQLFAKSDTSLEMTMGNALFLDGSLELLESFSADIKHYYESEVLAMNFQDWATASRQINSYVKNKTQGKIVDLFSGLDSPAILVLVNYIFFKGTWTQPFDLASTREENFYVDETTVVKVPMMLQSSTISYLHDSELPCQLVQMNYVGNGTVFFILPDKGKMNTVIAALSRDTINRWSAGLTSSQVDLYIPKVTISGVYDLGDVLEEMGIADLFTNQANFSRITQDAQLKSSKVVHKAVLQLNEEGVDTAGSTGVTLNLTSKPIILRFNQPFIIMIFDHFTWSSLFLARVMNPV
Experiment: Binding of corticosteroids to transcortin: 3H-cortisol competition in charcoal-treated diluted plasma
Details: 3 nM 3H-cortisol, 1 hour on ice, plasma diluted 100-fold; read-out: IC50-values (nM) average ± SEM (n)
Description: Experimental procedure: Venous blood was collected from healthy volunteers into heparin-containing tubes (5 Us/100 ml serum) and cells were separated from plasma by centrifugation (1500 g for 15 min). […] They were then centrifuged for 10 min at 15 000 g, and the same aliquots from the clear supernatants were quantitatively decanted into counting vials and combined with 3 ml of toluene-based scintillation fluid. […] Specific binding and IC50-values were calculated.
Criterion: IC50 strictly under 70 nM. Met: 1. Not met: -1.

# count of solved cases: 3
compound	category-label
CCOC(=O)[C@@]1(OC(=O)C(Cl)Cl)CC[C@H]2[C@@H]3CCC4=CC(=O)C=C[C@]4(C)[C@H]3[C@@H](O)C[C@@]21C [Etiprednol dicloacetate (BNP-166), Etiprednol dicloacetate]	-1
CCOC(=O)O[C@]1(C(=O)OCCl)CC[C@H]2[C@@H]3CCC4=CC(=O)C=C[C@]4(C)[C@H]3[C@@H](O)C[C@@]21C [Loteprednol etabonate]	-1
C[C@]12C=CC(=O)C=C1CCC1C2C(=O)C[C@@]2(C)C1CC[C@]2(O)C(=O)CO (some centres unmarked)	1

Qu. Strictly below 70 nM: is that where IC50 of COC(=O)[C@@]1(O)CCC2C3CCC4=CC(=O)C=C[C@]4(C)C3[C@@H](O)C[C@@]21C (some centres unmarked) sits?
Ans. 1
